Molecular target: T1, 4H2393-AA
T1 chain: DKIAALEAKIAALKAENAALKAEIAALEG
Experiment: two-hybrid library CCmax;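 also: natural log of median RNA to DNA barcode read ratio; higher means stronger binding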
Conditions: mean of both orientations
# interaction score annotations
measurementType: interaction score

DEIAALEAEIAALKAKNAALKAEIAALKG [4H122-AA]    1.93
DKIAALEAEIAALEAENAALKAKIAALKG [4H2078-AA]    2.47
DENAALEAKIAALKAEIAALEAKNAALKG [4H1352-AA]    -1.01
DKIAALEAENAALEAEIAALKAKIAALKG [4H2190-AA]    0.996
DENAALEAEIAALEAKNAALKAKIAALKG [4H1086-AA]    1.89
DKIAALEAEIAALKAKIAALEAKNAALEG [4H2151-AA]    -1.54
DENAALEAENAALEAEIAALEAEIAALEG [4H1153-AA]    -1.3
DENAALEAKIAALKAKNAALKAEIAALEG [4H1401-AA]    -1.43
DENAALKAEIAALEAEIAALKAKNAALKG [4H1552-AA]    -1.36
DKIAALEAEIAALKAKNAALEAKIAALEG [4H2165-AA]    -0.392
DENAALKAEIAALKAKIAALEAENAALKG [4H1636-AA]    -0.706
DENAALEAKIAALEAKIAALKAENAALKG [4H1324-AA]    -0.744
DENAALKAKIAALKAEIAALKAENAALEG [4H1867-AA]    -1.58
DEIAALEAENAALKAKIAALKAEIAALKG [4H234-AA]    0.577
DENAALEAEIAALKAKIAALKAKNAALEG [4H1135-AA]    -1.45
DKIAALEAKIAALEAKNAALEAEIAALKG [4H2354-AA]    -0.967

Cited source: paper PMC10397247
